- tested-target: Glutamate receptor 4 (Homo sapiens, UniProt P48058)
- Sequence (P48058 whole entry): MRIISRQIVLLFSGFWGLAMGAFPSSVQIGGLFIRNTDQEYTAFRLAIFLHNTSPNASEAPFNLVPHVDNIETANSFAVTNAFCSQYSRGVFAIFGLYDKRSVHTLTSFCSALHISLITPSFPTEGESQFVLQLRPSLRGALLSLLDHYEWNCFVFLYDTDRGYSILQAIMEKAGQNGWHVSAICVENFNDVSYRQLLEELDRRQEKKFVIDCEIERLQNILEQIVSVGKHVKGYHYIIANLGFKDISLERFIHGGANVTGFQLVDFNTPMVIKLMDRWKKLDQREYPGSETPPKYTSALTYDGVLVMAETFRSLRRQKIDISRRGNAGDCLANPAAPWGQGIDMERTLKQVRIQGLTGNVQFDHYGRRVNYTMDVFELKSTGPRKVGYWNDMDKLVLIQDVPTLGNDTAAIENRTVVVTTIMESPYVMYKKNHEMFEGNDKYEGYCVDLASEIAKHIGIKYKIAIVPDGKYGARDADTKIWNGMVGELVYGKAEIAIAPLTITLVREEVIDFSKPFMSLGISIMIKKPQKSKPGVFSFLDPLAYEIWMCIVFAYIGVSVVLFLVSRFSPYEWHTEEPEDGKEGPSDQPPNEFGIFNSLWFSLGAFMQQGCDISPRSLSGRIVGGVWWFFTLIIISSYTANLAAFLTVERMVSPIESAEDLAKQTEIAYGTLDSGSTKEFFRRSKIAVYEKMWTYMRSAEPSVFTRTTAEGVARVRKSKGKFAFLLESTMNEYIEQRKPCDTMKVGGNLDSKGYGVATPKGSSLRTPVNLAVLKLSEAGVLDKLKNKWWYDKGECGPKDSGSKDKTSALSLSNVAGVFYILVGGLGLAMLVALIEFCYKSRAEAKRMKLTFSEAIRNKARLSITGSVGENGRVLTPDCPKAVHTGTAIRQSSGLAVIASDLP
- test-summary: % potentiation of responses mediated by 100 uM L-glutamate in human transfected HEK293 cells expressing homomeric iGluR4 flip receptors at a dose of 3 uM.
- Type: functional, cell-based
metric-name: Potentiation (%)

- compound: "CC(C)S(=O)(=O)N[C@@H]1CCC[C@@H]1c1ccccc1 (racemic)"
  tested-target: "Glutamate receptor 4 (Homo sapiens, UniProt P48058)"
  metric-name: "Potentiation"
  unit-name: "%"
  value-reported: 48
- compound: "CC(C)S(=O)(=O)N[C@@H]1CCC[C@H]1c1ccc(I)cc1"
  tested-target: "Glutamate receptor 4 (Homo sapiens, UniProt P48058)"
  metric-name: "Potentiation"
  unit-name: "%"
  value-reported: 12
- compound: "CC(C)S(=O)(=O)N[C@@H]1CCC[C@H]1c1ccccc1"
  tested-target: "Glutamate receptor 4 (Homo sapiens, UniProt P48058)"
  metric-name: "Potentiation"
  unit-name: "%"
  value-reported: 6
- compound: "CC(CNS(=O)(=O)C(C)C)c1ccc(Br)cc1 (racemic)"
  tested-target: "Glutamate receptor 4 (Homo sapiens, UniProt P48058)"
  metric-name: "Potentiation"
  unit-name: "%"
  value-reported: 26
- compound: "CC(C)S(=O)(=O)N[C@H]1CCC[C@H]1c1ccc(Br)cc1"
  tested-target: "Glutamate receptor 4 (Homo sapiens, UniProt P48058)"
  metric-name: "Potentiation"
  unit-name: "%"
  value-reported: 27
- compound: "CC(C)S(=O)(=O)N[C@H]1CCC[C@H]1c1ccccc1"
  tested-target: "Glutamate receptor 4 (Homo sapiens, UniProt P48058)"
  metric-name: "Potentiation"
  unit-name: "%"
  value-reported: 2

###

- tested-target: Glutamate receptor 4 (Homo sapiens)
- test-summary: Potentiation of responses mediated by 100 uM L-glutamate in transfected HEK293 cells expressing human homomeric iGluR4 flip receptors.
- Format: functional, cell-based
pEC50: −log10 of the molar value.

- compound: "CC(C)S(=O)(=O)N[C@H]1CCC[C@@H]1c1ccc(Br)cc1 (racemic)"
  tested-target: "Glutamate receptor 4 (Homo sapiens)"
  pEC50: 6.89
- compound: "CC(C)S(=O)(=O)N[C@@H]1CCC[C@@H]1c1ccc(I)cc1"
  tested-target: "Glutamate receptor 4 (Homo sapiens)"
  pEC50: 7.65
- compound: "CC(C)S(=O)(=O)N[C@H]1CCC[C@@H]1c1ccc(I)cc1"
  tested-target: "Glutamate receptor 4 (Homo sapiens)"
  pEC50: 7.48
- compound: "CC(C)S(=O)(=O)N[C@H]1CCC[C@@H]1c1ccc(Br)cc1"
  tested-target: "Glutamate receptor 4 (Homo sapiens)"
  pEC50: 7.09
- compound: "CC(C)S(=O)(=O)N[C@@H]1CCC[C@@H]1c1cc(F)cc(F)c1 (racemic)"
  tested-target: "Glutamate receptor 4 (Homo sapiens)"
  pEC50: 6.55
- compound: "CC(C)S(=O)(=O)N[C@@H]1CCC[C@@H]1c1ccc(Br)cc1 (racemic)"
  tested-target: "Glutamate receptor 4 (Homo sapiens)"
  pEC50: 6.83
- compound: "CC(C)S(=O)(=O)N[C@@H]1CCC[C@@H]1c1cc(F)cc(F)c1"
  tested-target: "Glutamate receptor 4 (Homo sapiens)"
  pEC50: 6.93
- compound: "CC(C)S(=O)(=O)N[C@@H]1CCC[C@@H]1c1ccc(I)cc1 (racemic)"
  tested-target: "Glutamate receptor 4 (Homo sapiens)"
  pEC50: 7.34
- compound: "CC(C)S(=O)(=O)N[C@@H]1CCC[C@@H]1c1ccccc1"
  tested-target: "Glutamate receptor 4 (Homo sapiens)"
  pEC50: 5.76
- compound: "CC(C)S(=O)(=O)N[C@@H]1CCC[C@@H]1c1ccc(C#N)cc1"
  tested-target: "Glutamate receptor 4 (Homo sapiens)"
  pEC50: 6.39
- compound: "CC(C)S(=O)(=O)N[C@H]1CCC[C@@H]1c1ccccc1"
  tested-target: "Glutamate receptor 4 (Homo sapiens)"
  pEC50: 6.26
- compound: "CC(C)S(=O)(=O)N[C@@H]1CCC[C@@H]1c1ccc(F)c(F)c1 (racemic)"
  tested-target: "Glutamate receptor 4 (Homo sapiens)"
  pEC50: 5.96
- compound: "Cc1ccc([C@H]2CCC[C@H]2NS(=O)(=O)C(C)C)cc1 (racemic)"
  tested-target: "Glutamate receptor 4 (Homo sapiens)"
  pEC50: 6.36
- compound: "CC(C)S(=O)(=O)N[C@@H]1CCC[C@@H]1c1cccc(F)c1 (racemic)"
  tested-target: "Glutamate receptor 4 (Homo sapiens)"
  pEC50: 6.21
- compound: "CC(C)S(=O)(=O)N[C@@H]1CCC[C@@H]1c1ccc([N+](=O)[O-])cc1 (racemic)"
  tested-target: "Glutamate receptor 4 (Homo sapiens)"
  pEC50: 6.72
- compound: "CC(C)S(=O)(=O)N[C@H]1CCC[C@@H]1c1ccc(I)cc1 (racemic)"
  tested-target: "Glutamate receptor 4 (Homo sapiens)"
  pEC50: 7.03
- compound: "CC(C)S(=O)(=O)N[C@@H]1CCC[C@@H]1c1ccc(Cl)cc1 (racemic)"
  tested-target: "Glutamate receptor 4 (Homo sapiens)"
  pEC50: 6.61
- compound: "CC(C)S(=O)(=O)N[C@@H]1CCC[C@@H]1c1ccc(Br)cc1"
  tested-target: "Glutamate receptor 4 (Homo sapiens)"
  pEC50: 7.17

// provenance: ChEMBL document CHEMBL1135411
